# SYSTEM NAME: ATP-citrate synthase (Homo sapiens)
# ASSAY PROCEDURE: Inhibitory activity was tested against human recombinant ATP-Citrate Lyase (ACL) enzyme
OBSERVATION TYPE: pKi
Give bare numbers, as −log10 of the molar value.

**Q:** Given the entry O=C(O)C[C@@](O)(C[C@H](O)CCCCCCc1ccc(Cl)cc1Cl)C(=O)O (stereo in doubt; 45) , report its measured pKi.
**A:** 6.00

###

# SYSTEM NAME: ATP-citrate synthase (Homo sapiens, UniProt P53396)
# Sequence (P53396 whole entry): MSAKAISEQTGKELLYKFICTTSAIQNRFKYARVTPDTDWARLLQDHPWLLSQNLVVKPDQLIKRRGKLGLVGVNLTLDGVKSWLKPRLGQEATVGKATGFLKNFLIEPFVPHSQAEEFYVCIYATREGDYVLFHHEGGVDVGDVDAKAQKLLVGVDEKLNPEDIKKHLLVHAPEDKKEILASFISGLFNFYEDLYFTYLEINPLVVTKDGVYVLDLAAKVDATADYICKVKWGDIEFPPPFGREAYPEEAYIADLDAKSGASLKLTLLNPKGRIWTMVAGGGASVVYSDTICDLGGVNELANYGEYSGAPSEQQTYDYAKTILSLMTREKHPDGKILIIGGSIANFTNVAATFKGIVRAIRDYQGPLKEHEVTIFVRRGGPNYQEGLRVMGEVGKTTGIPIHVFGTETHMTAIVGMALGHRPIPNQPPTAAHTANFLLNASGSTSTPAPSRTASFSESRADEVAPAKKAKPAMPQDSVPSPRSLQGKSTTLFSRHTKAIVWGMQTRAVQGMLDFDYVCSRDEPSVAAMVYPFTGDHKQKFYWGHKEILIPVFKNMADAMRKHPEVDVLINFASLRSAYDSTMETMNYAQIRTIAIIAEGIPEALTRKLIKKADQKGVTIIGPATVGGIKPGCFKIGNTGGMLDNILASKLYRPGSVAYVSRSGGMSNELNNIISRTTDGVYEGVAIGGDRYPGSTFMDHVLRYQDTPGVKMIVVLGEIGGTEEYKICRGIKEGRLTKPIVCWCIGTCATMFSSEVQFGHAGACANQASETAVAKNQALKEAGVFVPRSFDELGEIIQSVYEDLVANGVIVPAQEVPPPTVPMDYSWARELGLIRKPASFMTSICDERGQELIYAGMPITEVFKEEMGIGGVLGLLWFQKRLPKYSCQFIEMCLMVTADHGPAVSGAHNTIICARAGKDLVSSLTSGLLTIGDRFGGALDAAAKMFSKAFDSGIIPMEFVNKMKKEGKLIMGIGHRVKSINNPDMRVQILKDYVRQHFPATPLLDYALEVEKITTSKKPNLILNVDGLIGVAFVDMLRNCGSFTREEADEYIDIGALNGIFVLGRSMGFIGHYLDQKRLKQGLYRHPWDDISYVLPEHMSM
# ASSAY PROCEDURE: Inhibitory activity against human recombinant ATP-Citrate Lyase (ACL) enzyme
OBSERVATION TYPE: Ki (nM)
Answers are plain numbers, in nM.

Use the examples below as a reference point.
O=C(O)C[C@@](O)(C[C@H](O)CCCCCn1c2c(c3cc(Cl)ccc31)CCCC2)C(=O)O ... 2900
Cc1ccc(-c2cc(Cl)ccc2CCCCCC[C@@H](O)C[C@](O)(CC(=O)O)C(=O)O)cc1 ... 2700
O=C(O)C[C@@](O)(C[C@H](O)CCCCCn1ccc2cc(Cl)cc(Cl)c21)C(=O)O ... 1800
O=C(O)[C@@H](O)[C@@](O)(C[C@H](O)CCCCCCc1ccc(Cl)cc1Cl)C(=O)O ... 620

Quick one: give me Ki for each item below, same order please.
1. O=C(O)C[C@@](O)(C[C@H](O)CCCCCn1cc([N+](=O)[O-])c2cc(Cl)ccc21)C(=O)O
2. O=C(O)C[C@@](O)(C[C@H](O)CCCCCCc1ccc(Cl)cc1OCc1ccccc1)C(=O)O
3. O=C(O)C[C@@](O)(C[C@H](O)CCCCCn1c(-c2ccccc2)cc2cc(Cl)ccc21)C(=O)O
4. O=C(O)C[C@](O)(C(=O)O)[C@@H](O)CCCCCCCc1ccc(Cl)cc1Cl
5. Cc1cn(-c2cc(Cl)ccc2CCCCCC[C@@H](O)C[C@](O)(CC(=O)O)C(=O)O)cc1C (stereo in doubt; (-)-58)
6. O=C(O)C[C@@](O)(C[C@H](O)CCCCCn1ccc2cc(Cl)ccc21)C(=O)O
7. O=C(O)C[C@@](O)(C[C@H](O)CCCCCn1cc(Cc2ccccc2)c2cc(Cl)ccc21)C(=O)O

**A:**
1: 64000; 2: 1100; 3: 370; 4: 5700; 5: 340; 6: 3500; 7: 2900

Quick one: give me Ki for each item below, same order please.
1. O=C(O)C[C@@](O)(C[C@H](O)CCCCCCn1ccc2cc(Cl)ccc21)C(=O)O
2. Cc1cn(-c2cc(Cl)ccc2CCCCCC[C@@H](O)C[C@](O)(CC(=O)O)C(=O)O)cc1C (stereo in doubt; (+)-58)
3. O=C(O)C[C@@](O)(C[C@H](O)CCCCCCc1ccc(Cl)cc1-n1cccc1)C(=O)O
4. O=C(O)C[C@](O)(C(=O)O)[C@@H](O)CCCCCCCCc1ccc(Cl)cc1Cl
5. O=C(O)C[C@@](O)(C[C@H](O)CCCCCCc1ccc(Cl)cc1-c1ccc(Cl)cc1Cl)C(=O)O
6. O=C(O)C[C@@](O)(C[C@H](O)CCCCCCc1ccc(Cl)cc1-c1ccc(Cl)cc1)C(=O)O
7. O=C(O)C[C@@](O)(C[C@H](O)CCCCCn1c2ccccc2c2cc(Cl)ccc21)C(=O)O

**A:**
1. 3200
2. 580
3. 3900
4. 18000
5. 21000
6. 5000
7. 710

###

# Test system: HepG2
# ASSAY PROCEDURE: Inhibition of cholesterol synthesis in HepG2 cells was measured at 3 uM concentration.
# Type: functional, Homo sapiens
# Parameters: scale not given: the % may be the effect or the level left
OBSERVATION TYPE: Control (%)
Give bare numbers, in %.

Use the examples below as a reference point.
Cc1cn(-c2cc(Cl)ccc2CCCCCC[C@@H]2C[C@](O)(CC(=O)O)C(=O)O2)cc1C ... 104
O=C(O)C[C@@]1(O)C[C@@H](CCCCCCc2ccc(Cl)cc2-c2ccccc2)OC1=O ... 101

Quick one: give me Control for each item below, same order please.
1. O=C(O)C[C@@]1(O)C[C@@H](CCCCCCc2ccc(Cl)cc2Cl)OC1=O
2. O=C(O)[C@H](O)[C@@]1(O)C[C@@H](CCCCCCc2ccc(Cl)cc2Cl)OC1=O

**A:**
98
69

###

# Tested on: HepG2
# ASSAY PROCEDURE: Inhibition of fatty acid synthesis in HepG2 cells was measured at 3 uM concentration.
# Assay type: functional, Homo sapiens
# Parameters: scale not given: the % may be the effect or the level left
OBSERVATION TYPE: Control (%)
One number for each entry, in %.

Quick one: give me Control for each item below, same order please.
1. O=C(O)C[C@@]1(O)C[C@@H](CCCCCCc2ccc(Cl)cc2Cl)OC1=O
2. Cc1cn(-c2cc(Cl)ccc2CCCCCC[C@@H]2C[C@](O)(CC(=O)O)C(=O)O2)cc1C
3. O=C(O)[C@H](O)[C@@]1(O)C[C@@H](CCCCCCc2ccc(Cl)cc2Cl)OC1=O
4. O=C(O)C[C@@]1(O)C[C@@H](CCCCCCc2ccc(Cl)cc2-c2ccccc2)OC1=O

**A:**
1: 114; 2: 102; 3: 74; 4: 108

###

Field: log10 Ki. Provide a value for each of the molecules that follow.
# SYSTEM NAME: UniProtKB P53396
# ASSAY PROCEDURE: Inhibitory activity against human recombinant ATP-Citrate Lyase (ACL) enzyme
Quick note: numbers are log10 of Ki, with µM as the unit.

COc1ccc(-c2cc(Cl)ccc2CCCCCC[C@@H](O)C[C@](O)(CC(=O)O)C(=O)O)cc1 ... 0.71
O=C(O)C[C@@](O)(C[C@H](O)CCCCn1ccc2cc(Cl)ccc21)C(=O)O ... 2.20
O=C(O)C[C@@](O)(C[C@H](O)CCCCCC1c2ccccc2-c2cc(Cl)ccc21)C(=O)O (some centres undefined) ... -0.66

Quick one: give me log10 Ki for each item below, same order please.
1. O=C(O)C[C@@](O)(C[C@H](O)CCCCCn1ccc2ccc(Cl)cc21)C(=O)O
2. O=C(O)C[C@@](O)(C[C@H](O)CCCCCn1cc(-c2ccccc2)c2cc(Cl)ccc21)C(=O)O

**A:**
1: 1.61; 2: 1.04

###

# SYSTEM NAME: ATP-citrate synthase (Rattus norvegicus, UniProt P16638)
# Sequence (P16638 whole entry): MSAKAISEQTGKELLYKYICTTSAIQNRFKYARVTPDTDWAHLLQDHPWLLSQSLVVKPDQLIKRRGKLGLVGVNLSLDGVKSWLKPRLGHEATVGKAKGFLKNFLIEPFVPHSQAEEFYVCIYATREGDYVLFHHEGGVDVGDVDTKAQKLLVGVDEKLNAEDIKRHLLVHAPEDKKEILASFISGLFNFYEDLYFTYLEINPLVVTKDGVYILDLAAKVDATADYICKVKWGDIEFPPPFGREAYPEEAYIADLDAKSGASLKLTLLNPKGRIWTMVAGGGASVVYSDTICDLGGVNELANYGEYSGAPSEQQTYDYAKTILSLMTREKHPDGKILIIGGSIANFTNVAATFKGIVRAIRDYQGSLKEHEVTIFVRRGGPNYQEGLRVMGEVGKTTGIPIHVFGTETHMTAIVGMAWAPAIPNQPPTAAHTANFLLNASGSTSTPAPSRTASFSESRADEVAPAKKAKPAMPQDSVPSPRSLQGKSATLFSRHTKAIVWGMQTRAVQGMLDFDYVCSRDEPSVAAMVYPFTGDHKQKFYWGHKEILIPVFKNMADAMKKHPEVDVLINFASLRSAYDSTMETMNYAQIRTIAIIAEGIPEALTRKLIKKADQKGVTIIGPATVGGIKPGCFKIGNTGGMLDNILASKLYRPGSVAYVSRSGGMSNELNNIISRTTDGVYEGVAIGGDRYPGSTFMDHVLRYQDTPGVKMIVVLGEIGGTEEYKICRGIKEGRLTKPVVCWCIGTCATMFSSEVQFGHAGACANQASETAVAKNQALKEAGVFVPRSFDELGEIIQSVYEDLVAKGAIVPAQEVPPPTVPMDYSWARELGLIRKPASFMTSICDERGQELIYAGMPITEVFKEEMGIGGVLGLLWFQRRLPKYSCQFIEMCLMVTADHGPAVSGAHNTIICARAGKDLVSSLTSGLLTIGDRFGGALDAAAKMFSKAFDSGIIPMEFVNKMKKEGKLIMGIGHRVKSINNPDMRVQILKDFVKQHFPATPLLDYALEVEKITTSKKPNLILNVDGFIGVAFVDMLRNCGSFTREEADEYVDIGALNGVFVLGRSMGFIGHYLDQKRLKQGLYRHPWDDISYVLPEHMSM
# ASSAY PROCEDURE: Inhibitory activity was tested against rat ATP-Citrate Lyase (ACL) enzyme
Field: Ki. Provide a value for each of the compounds that follow.
One number for each entry, in nM.

O=C(O)C[C@@](O)(C[C@H](O)CCCCCCc1ccc(Cl)cc1Cl)C(=O)O (stereo in doubt; (-)-45) ... 700
O=C(O)C[C@@](O)(CC(=O)CCCCCCc1ccc(Cl)cc1Cl)C(=O)O ... 1200
O=C(O)C[C@@](O)(C[C@H](O)CCCCCCc1ccc(Cl)cc1Cl)C(=O)O (stereo in doubt; (+)-45) ... 700

Now consider the entry below.
**Q:** Given the entry O=C(O)C[C@@](O)(C[C@H](O)CCCCCCc1ccc(Cl)cc1Cl)C(=O)O (stereo in doubt; 45) , report its measured Ki.
**A:** 1000
